Molecular target: T1, 4H2883-AA
T1 chain: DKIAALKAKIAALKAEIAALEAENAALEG
Assay: two-hybrid library CCmax;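 also: natural log of median RNA to DNA barcode read ratio; higher means stronger binding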
Conditions: mean of both orientations
Measurement name: interaction score

# annotated cases, reported interaction score shown
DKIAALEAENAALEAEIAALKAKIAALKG [4H2190-AA]; 0.596
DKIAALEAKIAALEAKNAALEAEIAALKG [4H2354-AA]; -1.31
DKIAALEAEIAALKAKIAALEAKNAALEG [4H2151-AA]; 0.105

A. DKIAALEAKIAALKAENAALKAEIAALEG [4H2393-AA]
B. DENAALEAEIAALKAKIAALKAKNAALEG [4H1135-AA]
Returns: the label, A or B , whose recorded interaction score is the lower number. Answer with the label corresponding to your selection.
A

a. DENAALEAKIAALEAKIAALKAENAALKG [4H1324-AA]
b. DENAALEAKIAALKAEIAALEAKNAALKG [4H1352-AA]
c. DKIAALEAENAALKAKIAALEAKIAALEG [4H2277-AA]
Ranking field: interaction score; order: falling. To answer, arrange all of the labels according to the requested order.
a, b, c
